target under test: human TLR7 (Homo sapiens)
Sequence (Q9NYK1 27-1049): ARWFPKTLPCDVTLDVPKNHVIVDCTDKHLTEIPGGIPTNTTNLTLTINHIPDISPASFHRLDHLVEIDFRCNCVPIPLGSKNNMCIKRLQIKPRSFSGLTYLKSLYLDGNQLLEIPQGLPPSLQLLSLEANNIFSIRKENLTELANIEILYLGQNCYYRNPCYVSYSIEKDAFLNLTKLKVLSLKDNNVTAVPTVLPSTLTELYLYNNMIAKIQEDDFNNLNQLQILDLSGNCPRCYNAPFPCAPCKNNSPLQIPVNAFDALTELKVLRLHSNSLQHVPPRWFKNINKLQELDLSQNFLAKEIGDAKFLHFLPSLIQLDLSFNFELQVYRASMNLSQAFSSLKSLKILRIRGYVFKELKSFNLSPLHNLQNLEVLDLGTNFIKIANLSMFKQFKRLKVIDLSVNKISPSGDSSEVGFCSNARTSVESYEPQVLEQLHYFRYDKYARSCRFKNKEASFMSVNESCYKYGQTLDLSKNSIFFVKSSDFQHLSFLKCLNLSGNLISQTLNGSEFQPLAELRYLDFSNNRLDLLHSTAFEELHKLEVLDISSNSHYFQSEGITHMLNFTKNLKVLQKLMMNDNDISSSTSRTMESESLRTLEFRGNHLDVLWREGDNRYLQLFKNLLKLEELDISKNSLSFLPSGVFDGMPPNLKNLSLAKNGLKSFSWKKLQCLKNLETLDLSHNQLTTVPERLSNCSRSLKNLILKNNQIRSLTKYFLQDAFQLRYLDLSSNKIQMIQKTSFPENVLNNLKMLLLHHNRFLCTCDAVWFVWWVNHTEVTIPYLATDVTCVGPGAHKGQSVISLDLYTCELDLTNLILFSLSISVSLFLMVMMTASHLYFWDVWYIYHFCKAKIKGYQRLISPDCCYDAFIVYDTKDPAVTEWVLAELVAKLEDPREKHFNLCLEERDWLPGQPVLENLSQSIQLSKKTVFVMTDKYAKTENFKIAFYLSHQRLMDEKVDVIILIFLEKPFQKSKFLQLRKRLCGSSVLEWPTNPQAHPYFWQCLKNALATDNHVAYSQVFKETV
test: TLR7 inhibition reporter assay (HEK-Blue cells, SEAP reporter, gardiquimod stimulation)
measurement setup: HEK-Blue cells overexpressing human TLR7, gardiquimod 7.5 μM
Listing: IC50 of selected molecules

molecule: COc1ccc(-c2[nH]c3ccc(C4CCN(CC(=O)N5CCC(C(N)=O)CC5)CC4)cc3c2CC(F)(F)F)cc1OC
units symbol: nM
IC50: 101

molecule: COc1ccc(-c2[nH]c3ccc(C4CCN(Cc5nccn5C)CC4)cc3c2C(C)C)cc1OC
units symbol: nM
IC50: 61

molecule: COc1ccc(-c2[nH]c3ccc(C4CCN(CCN(C)CC(C)C)CC4)cc3c2C)cc1OC
units symbol: nM
IC50: 1120

molecule: COc1ccc(-c2[nH]c3ccc(C4CCN(C(=O)CN[C@H]5CC[C@H](N)CC5)CC4)cc3c2C(C)C)cc1OC
units symbol: nM
IC50: 120

molecule: COc1ccc(-c2[nH]c3ccc(C4CCN(CC(=O)N(C)CCN(C)C)CC4)cc3c2CC(F)(F)F)cc1OC
units symbol: nM
IC50: 23

molecule: COc1ccc(-c2[nH]c3ccc(C4CCNCC4F)cc3c2C(C)C)cc1OC (single isomer, unassigned) [Example 323]
units symbol: nM
IC50: 42

molecule: COc1ccc(-c2[nH]c3ccc(C4CCN(C(=O)CN5CCC[C@@H](C(=O)N6CCN(C(C)C)CC6)C5)CC4)cc3c2C(C)C)cc1OC
units symbol: nM
IC50: 40
